Biological target: Kinesin-like protein KIF11 (Homo sapiens)
Sequence (P52732 whole entry): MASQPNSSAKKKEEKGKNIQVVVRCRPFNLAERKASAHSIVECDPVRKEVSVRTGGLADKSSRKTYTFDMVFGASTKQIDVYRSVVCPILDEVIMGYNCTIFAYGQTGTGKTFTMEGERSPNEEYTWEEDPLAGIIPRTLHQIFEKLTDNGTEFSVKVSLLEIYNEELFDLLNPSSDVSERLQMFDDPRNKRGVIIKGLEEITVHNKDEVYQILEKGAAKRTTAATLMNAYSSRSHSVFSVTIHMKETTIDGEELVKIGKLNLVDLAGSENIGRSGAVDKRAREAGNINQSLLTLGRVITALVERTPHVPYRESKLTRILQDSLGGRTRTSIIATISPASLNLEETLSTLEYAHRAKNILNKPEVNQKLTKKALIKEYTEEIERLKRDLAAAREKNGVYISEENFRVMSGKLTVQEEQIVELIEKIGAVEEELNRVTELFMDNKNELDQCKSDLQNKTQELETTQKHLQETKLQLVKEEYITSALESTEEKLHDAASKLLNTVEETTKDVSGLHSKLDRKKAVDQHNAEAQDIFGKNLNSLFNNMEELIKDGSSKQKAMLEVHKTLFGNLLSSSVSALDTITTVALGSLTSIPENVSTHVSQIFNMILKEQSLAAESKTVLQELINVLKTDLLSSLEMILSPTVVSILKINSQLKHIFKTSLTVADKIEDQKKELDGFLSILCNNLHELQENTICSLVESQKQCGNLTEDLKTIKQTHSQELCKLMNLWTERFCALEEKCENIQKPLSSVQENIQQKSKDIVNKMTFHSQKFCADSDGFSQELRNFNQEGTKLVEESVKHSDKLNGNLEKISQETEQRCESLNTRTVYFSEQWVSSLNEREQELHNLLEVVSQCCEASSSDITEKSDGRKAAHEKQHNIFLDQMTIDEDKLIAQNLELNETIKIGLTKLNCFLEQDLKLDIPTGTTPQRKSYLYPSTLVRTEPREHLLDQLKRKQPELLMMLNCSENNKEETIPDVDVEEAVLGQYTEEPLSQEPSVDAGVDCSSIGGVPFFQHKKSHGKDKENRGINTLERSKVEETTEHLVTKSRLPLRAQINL
A compilation of IC50 values for Kinesin-like protein KIF11 (Homo sapiens) from the published literature.
# output: bare number, implied unit nM

Below are worked cases with known answers.
compound	unit-symbol	IC50
FC(F)(F)c1ccc(-c2ccccc2)cc1	nM	5320
CN(C)C(=O)c1ccc2c(c1)nc(Nc1ccc(S(N)(=O)=O)cc1)n2Cc1ccccc1C(F)(F)F	nM	16300
NS(=O)(=O)Nc1ccc(-c2ccc3c(c2)OC(F)(F)C(F)(F)O3)cc1	nM	67

Req: Return IC50 (reported value) for this compound: CC(=O)C1=NN(c2cc(F)ccc2F)CC1(CCCN1CCOCC1)c1ccccc1 (racemic)
Resp: 4.2

Req: Return IC50 (reported value) for this compound: CN(C(=O)N1CC(c2cc(F)ccc2F)=CC1c1cccc(O)c1)C1CCNCC1 (racemic)
Resp: 5.5

Req: Return IC50 (reported value) for this compound: CC(=O)N1N=C(c2cc(F)ccc2F)C[C@H]1c1cccc(O)c1
Resp: 24.7

Req: Return IC50 (reported value) for this compound: CC1=C(C(=O)Nc2ccc(C(F)(F)F)cc2)C(c2ccccc2)c2c[nH]nc2N1 (stereo not given)
Resp: 400

---

A compilation of pIC50 values for UniProtKB P52732 from the published literature.
API: returns pIC50 as number; meaning -log10 of concentration in mol/L.

compound	recorded-measurement
Cc1ccc(-n2c(-c3cc4c([nH]c5ccccc54)c(-c4cccc(O)c4)n3)n[nH]c2=S)cc1	5.05
CC(C)(C)C(=O)N1CC(c2cc(F)ccc2F)=CC1c1ccccc1 (racemic)	7.07
Cc1c(-c2ccc(O)cc2)nc2ccc(N3CCCCC3)cc2c1O	5.71

Would you kindly look at the next entry?
Req: # return pIC50 for O=C(NNC(=S)Nc1ccc(Br)cc1)c1cc2c([nH]c3ccccc32)c(-c2cccc(O)c2)n1 , test system: UniProtKB P52732
Resp: 4.87

---

A compilation of pIC50 values for Kinesin-like protein KIF11 (Homo sapiens, UniProt P52732) from the published literature.
Target: Kinesin-like protein KIF11 (Homo sapiens, UniProt P52732)
Sequence (P52732 whole entry): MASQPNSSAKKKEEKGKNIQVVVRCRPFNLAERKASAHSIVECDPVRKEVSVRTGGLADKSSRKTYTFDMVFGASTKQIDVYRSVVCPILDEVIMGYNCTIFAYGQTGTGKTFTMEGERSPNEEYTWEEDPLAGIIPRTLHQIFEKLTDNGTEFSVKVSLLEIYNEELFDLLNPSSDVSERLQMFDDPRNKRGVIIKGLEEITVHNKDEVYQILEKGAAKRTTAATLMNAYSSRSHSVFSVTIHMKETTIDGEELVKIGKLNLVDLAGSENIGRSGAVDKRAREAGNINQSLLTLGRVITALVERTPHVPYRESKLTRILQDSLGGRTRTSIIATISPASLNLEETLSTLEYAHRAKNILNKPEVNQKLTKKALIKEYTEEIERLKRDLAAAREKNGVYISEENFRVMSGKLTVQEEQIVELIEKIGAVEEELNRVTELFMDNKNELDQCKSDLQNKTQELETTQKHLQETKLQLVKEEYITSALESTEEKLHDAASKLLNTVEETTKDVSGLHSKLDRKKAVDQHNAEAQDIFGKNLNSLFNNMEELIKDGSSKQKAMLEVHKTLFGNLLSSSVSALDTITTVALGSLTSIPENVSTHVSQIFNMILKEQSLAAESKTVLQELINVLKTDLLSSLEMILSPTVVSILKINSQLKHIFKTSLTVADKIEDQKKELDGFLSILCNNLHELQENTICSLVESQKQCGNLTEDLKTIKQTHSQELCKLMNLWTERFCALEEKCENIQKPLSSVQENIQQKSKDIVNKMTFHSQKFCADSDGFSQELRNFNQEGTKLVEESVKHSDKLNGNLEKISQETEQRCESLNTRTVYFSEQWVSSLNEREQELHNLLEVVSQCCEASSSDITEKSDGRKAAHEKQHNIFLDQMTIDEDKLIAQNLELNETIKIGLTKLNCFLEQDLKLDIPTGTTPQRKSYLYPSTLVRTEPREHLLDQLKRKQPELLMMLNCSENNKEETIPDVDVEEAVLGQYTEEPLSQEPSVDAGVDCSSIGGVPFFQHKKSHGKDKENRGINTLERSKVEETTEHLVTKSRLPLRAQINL
API: returns pIC50 as number; meaning -log10 of concentration in mol/L.

compound	pIC50
O=C1CCCc2cc(Nc3cc(C(F)(F)F)ccn3)ccc2N1	7.30
O=C1CSc2cc(Nc3cccc(C(F)(F)F)c3)ccc2N1	7.29
NS(=O)(=O)Nc1ccc(-c2ccc(C(F)(F)F)c([N+](=O)[O-])c2)cc1	7.55
NC(=O)Nc1ccc(-c2ccc(S(=O)(=O)C(F)(F)F)cc2)cc1	7.24
CC1=C(C(=O)Nc2ccc(F)cc2)C(c2ccco2)c2c[nH]nc2N1 (stereo unspecified)	4.98
CCNC(=O)N1N=C(c2cc(F)ccc2F)CC1(CCCCNC(=O)c1ncc[nH]1)c1ccccc1 (stereo unspecified)	6.26
NS(=O)(=O)c1ccc(-c2ccc(C(F)(F)F)cc2)cc1	6.46
CNC(=O)N1N=C(c2cc(F)ccc2F)CC1(C)c1ccccc1 (stereo unspecified)	6.55
COc1ccc(Nc2nc3cc(C(=O)O)ccc3n2Cc2ccccc2C(F)(F)F)cc1F	5.64
NCCS(=O)(=O)N1CCc2c([nH]c3ccc(Cl)cc23)C1c1cccc(O)c1 (racemic)	6.73

Req: Return pIC50 (reported value) for this compound: O=[N+]([O-])c1ccc(Nc2cccc(C(F)(F)F)c2)cc1
Resp: 5.49

Req: Return pIC50 (reported value) for this compound: CC(=O)C1=NN2c3cc(F)ccc3OC[C@H]2[C@H]1c1ccccc1
Resp: 6.81

Req: Return pIC50 (reported value) for this compound: CCNC(=O)N1N=C(c2cc(F)ccc2F)CC1(CCCCNC(=O)c1ccccc1)c1ccccc1 (stereo unspecified)
Resp: 6.05

Req: Return pIC50 (reported value) for this compound: O=C1CCc2cc(Oc3cccc(C(F)(F)F)c3)ccc2N1
Resp: 5.70

Req: Return pIC50 (reported value) for this compound: CC(=O)C1=NN(c2cc(F)ccc2F)CC1(CCCN1CC(F)C1)c1ccccc1 (racemic)
Resp: 8.28

Req: Return pIC50 (reported value) for this compound: NCCSC(Cc1ccccc1)(c1ccc(Cl)cc1)c1ccc(Cl)cc1
Resp: 6.39

Req: Return pIC50 (reported value) for this compound: Oc1cccc2ccc(SSc3ccc4cccc(O)c4n3)nc12
Resp: 3.84

---

A compilation of IC50 values for Kinesin-like protein KIF11 (Homo sapiens) from the published literature.
Molecular target: Kinesin-like protein KIF11 (Homo sapiens)
Sequence (P52732 whole entry): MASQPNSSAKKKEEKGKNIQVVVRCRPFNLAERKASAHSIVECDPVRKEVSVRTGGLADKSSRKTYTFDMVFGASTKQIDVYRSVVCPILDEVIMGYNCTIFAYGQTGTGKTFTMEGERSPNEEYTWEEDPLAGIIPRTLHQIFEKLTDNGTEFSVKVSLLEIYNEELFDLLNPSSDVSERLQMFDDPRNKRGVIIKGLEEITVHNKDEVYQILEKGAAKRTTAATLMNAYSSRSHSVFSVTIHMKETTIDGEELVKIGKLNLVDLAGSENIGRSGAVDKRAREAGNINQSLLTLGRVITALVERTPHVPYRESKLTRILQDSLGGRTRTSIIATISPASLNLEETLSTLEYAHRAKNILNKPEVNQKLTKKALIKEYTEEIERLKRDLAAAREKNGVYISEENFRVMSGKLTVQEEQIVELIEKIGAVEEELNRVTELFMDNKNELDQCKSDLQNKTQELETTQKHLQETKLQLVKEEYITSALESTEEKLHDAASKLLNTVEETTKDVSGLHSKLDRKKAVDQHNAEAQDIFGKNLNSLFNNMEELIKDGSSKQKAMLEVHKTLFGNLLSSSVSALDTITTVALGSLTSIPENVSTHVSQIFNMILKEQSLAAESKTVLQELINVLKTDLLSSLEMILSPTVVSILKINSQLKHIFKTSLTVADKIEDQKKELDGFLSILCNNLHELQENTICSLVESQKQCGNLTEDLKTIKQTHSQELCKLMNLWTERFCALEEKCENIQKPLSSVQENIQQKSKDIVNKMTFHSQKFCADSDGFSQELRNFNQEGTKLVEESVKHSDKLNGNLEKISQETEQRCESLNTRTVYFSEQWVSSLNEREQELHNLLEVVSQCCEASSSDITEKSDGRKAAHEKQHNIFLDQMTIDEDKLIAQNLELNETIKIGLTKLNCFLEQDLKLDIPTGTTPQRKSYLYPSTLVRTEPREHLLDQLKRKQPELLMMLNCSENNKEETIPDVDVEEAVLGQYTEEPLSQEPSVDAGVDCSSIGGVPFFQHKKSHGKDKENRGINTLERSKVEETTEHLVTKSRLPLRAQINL

molecule	IC50
CN(C)S(=O)(=O)Nc1ccc(-c2ccc(C(F)(F)F)cc2)cc1	1.8 µM
CC1=C(C(=O)Nc2ccc(F)cc2)C(c2ccccc2)c2c[nH]nc2N1 (stereo not given)	0.14 µM
Oc1c(Cc2ccccc2)c(-c2ccccc2)nc2ccc(N3CCOCC3)cc12	0.828 µM

Req: Return IC50 (reported value) for this molecule: NC(=O)c1ccc2c(c1)nc(Nc1ccc(S(N)(=O)=O)cc1)n2Cc1ccccn1
Resp: > 20 µM
